Below, each entry is listed with its recorded growth inhibition.
- experiment summary: NCI Yeast Anticancer Drug Screen. Data for the mec2-1 strain (AID 157)
- measurement context: S. cerevisiae mec2-1 strain, active compounds read high; at 50.0 µM unless noted
Compounds without any hit were thinned out: in the full panel of roughly 79,000, 15% have a hit.
measured endpoint: growth inhibition (%)

> print(dat)
                                   compound  recorded.number
1  CCOC(=O)C(C)N1C(=O)c2ccccc2C1=O (stereo not drawn)            -20.4
2                             CC(C)(C)CNCCO            -23.4
3  Cc1cc(C)c2nccc(NCCCN(C)C)c2c1[N+](=O)[O-]                5
